- System: HCT-116 colon
- protocolDescription: NCI tumour cell line growth inhibition, 48 h

| compound | TGI |
| --- | --- |
| CC(=O)N1C(=O)/C(=C\C(=O)c2ccc(Cl)cc2)c2ccccc21 | 32.3 µM |
| CC(=O)OC1COC(n2c(N)c(C#N)c(-c3ccccc3)c(C#N)c2=S)C(OC(C)=O)C1OC(C)=O (stereo not given) | > 100 µM |
| c1ccc(-c2nn(-c3ccccc3)[n+](-c3ccccc3-c3ccccc3)n2)cc1 | > 33.3 µM |
| COc1cc(OC)cc(-c2nc3ccccc3c(=O)[nH]2)c1 | > 100 µM |
| COc1ccc(OC)c([N+](=O)[O-])c1-c1nc2sc(C)cn2c1/C=N/N=C(N)N | > 100 µM |
| CN1CCN(Cc2ccc(NC(=O)c3cncc(C#Cc4cncc5[nH]ncc45)c3)cc2C(F)(F)F)CC1 | 2.34 µM |
| c1ccc2c(c1)[C@@H]1O[C@@H]1[C@@]13O[C@@]21[C@H]1O[C@H]1c1ccccc13 | 25.2 µM |
| COc1cc2ccc(C(=O)O)cc2cc1OC | > 100 µM |
| C[S+](C)C1(c2ccccc2)C(=O)c2ccccc2C1=O | > 100 µM |
| CC(C)N(C(=O)C12C3C4C5C3C1(C(=O)N(C(C)C)C(C)C)C5C42)C(C)C (stereo not given) | > 57.8 µM |

Values compiled from PubChem BioAssay (NCI).
